Biological target: GST-Hu-p50 (Homo sapiens, UniProt P19838 7-356)
Sequence (P19838 7-356): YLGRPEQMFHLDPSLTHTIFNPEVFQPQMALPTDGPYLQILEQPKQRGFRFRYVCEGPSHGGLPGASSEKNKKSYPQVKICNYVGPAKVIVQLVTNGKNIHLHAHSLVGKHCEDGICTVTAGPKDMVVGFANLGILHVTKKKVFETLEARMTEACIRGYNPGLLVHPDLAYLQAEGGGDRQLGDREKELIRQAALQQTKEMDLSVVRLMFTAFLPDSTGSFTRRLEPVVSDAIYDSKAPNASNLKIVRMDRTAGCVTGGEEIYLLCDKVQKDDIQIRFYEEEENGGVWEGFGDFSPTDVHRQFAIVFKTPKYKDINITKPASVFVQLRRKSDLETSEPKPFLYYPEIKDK
Assay: protein-binding microarray (PBM); PBM: ~300 nM protein, 6 mM HEPES pH 7.8, 80 mM KCl, 0.5 mM EDTA, 0.5 mM EGTA, 6% glycerol, 35 ng/ul poly-dIdC, 1% milk, 1 h, room temperature; Ap Aiptasia and Nv Nematostella (sea anemones) / Co Capsaspora / Aq Amphimedon (sponge) / Dm Drosophila / Hu human; RHD is the Rel homology domain; high values mean tight binding
Details: dsDNA, one strand shown
reportedProperty: binding signal

Below are worked cases with known answers.
CCGATTAACATCATTTCCCAAAATGATGTTAATCGGGTCTTGATTCGCTTGACGCTGCTG : 1.56 z-score
CCGATTAACATCAAAGATTTCCCTGATGTTAATCGGGTCTTGATTCGCTTGACGCTGCTG : 4.86 z-score
CCGATTAACATCAACTTTCCCAGTGATGTTAATCGGGTCTTGATTCGCTTGACGCTGCTG : 1.59 z-score

Now for a further sequence.
## Task Item `CCGATTAACATCAATTTATCCCCTGATGTTAATCGGGTCTTGATTCGCTTGACGCTGCTG` has what recorded binding signal?
## Result 4.37 z-score

Numbers sourced from paper PMC5700166.
